# assayed.system: T1, N-terminal effector PYRIN domain of NLRP12 (residues 1-98) (human, UniProt P59046 1-98)
# T1 sequence: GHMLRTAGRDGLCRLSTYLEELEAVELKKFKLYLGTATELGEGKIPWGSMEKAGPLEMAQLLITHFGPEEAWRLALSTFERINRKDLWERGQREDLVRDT
# test.method.notes: NMR titration
Kd values for the binders below.

• FAF-1 UBA domain (residues 1-57) (domain or fragment, UniProt Q9UNN5 1-57, looked up) MASNMDREMILADFQACTGIENIDEAITLLEQNNWDLVAAINGVIPQENGILQSEYG = ≥ 150 µM

Field: next binder
Q. Query: Kd; subject: FAF-1 UBA domain and linker region (residues 1-99) (domain or fragment, UniProt Q9UNN5 1-99, looked up) MASNMDREMILADFQACTGIENIDEAITLLEQNNWDLVAAINGVIPQENGILQSEYGGETIPGPAFNPASHPASAPTSSSSSAFRPVMPSRQIVERQPR
A. ≥ 50 µM
